Tested on: liver gene expression (ACACA, ACLY, FASN, LSS, PNPLA3)
PROTOCOL DESCRIPTION: Liver gene expression in mice after oral administration
Format: in vivo
ASSAY CONDITIONS: 30 mpk, 24 h, vs vehicle
QUANTITY NAME: Total Gene FC Time (24 h)

Cc1cc(C(=O)N2CCC(O)CC2)ccc1-c1cncc(-c2ccnc(C(C)(C)C)c2)c1 :: + (>0.751 = +)
O=C(c1ccc(-c2cncc(-c3ccnc4c3OCCO4)c2)c(Cl)c1)N1CCC(O)CC1 :: +++ (0-0.509 = +++)
CC(C)(O)c1cc(-c2cncc(-c3ccc(C(=O)N4CCC(O)CC4)cc3Cl)c2)ccn1 :: + (>0.751 = +)
CC(C)(C)c1cc(-c2cncc(-c3ccc(C(=O)N4CCC(O)CC4)cc3Cl)c2)ccn1 :: + (>0.751 = +)
CC1(O)CCN(C(=O)c2ccc(-c3cncc(-c4ccnc(C(C)(C)C)c4)c3)c(Cl)c2)CC1 :: ++ (0.51-0.7509 = ++)
CC(C)OC(=O)Nc1ccc(-c2cncc(-c3ccnc(C(C)(C)C)c3)c2)c(Cl)c1 :: +++ (0-0.509 = +++)
CC(C)(C)c1cc(-c2cccc(-c3ccc(C(=O)N4CCC(O)CC4)cc3Cl)c2)ccn1 :: + (>0.751 = +)
CC(C)(C)c1cc(-c2cncc(-c3c(Cl)cc(C(=O)N4CCC(O)CC4)cc3Cl)c2)ccn1 :: ++ (0.51-0.7509 = ++)
